Measured MIC, listed per entry.
tested on: Aspergillus fumigatus; assay: Antifungal activity against Aspergillus fumigatus ATCC 36607 after 24 hrs by microdilution method; format: functional; conditions: ATCC 36607, 24 h
Endpoint label: MIC

{"columns": ["Compound", "Result"],
 "data": [
  ["CCc1c(C)c(C#N)c2nc3ccccc3n2c1N1CC[C@@H](N(C)C)C1", "> 128 µg/mL"],
  ["CCc1c(C)c(C(N)=O)c2nc3ccccc3n2c1NCCN(C)CC", "> 128 µg/mL"],
  ["Cc1c(CCO)c(N2CC[C@H](N(C)C)C2)n2c(nc3ccccc32)c1C#N", "> 128 µg/mL"],
  ["CCc1c(C)c(C#N)c2nc3ccccc3n2c1N1CCCC1", "> 64 µg/mL"],
  ["CN(C)[C@H]1CCN(c2c(-c3ccccc3)cc(C#N)c3nc4ccccc4n23)C1", "> 128 µg/mL"],
  ["CCc1c(-c2ccccc2)c(C#N)c2nc3ccccc3n2c1N1CC[C@H](N(C)C)C1", "> 128 µg/mL"],
  ["Cc1c(-c2ccccc2)c(N2CC[C@H](N(C)C)C2)n2c(nc3ccccc32)c1C#N", "> 128 µg/mL"],
  ["Cc1cc(N2CC[C@H](N(C)C)C2)n2c(nc3ccccc32)c1C#N", "> 128 µg/mL"],
  ["OC(Cn1cncn1)(Cn1cncn1)c1ccc(F)cc1F [FLUCONAZOLE]", "> 64 µg/mL"],
  ["CCCCc1c(C)c(C#N)c2nc3ccccc3n2c1N1CC[C@H](N(C)C)C1", "> 128 µg/mL"],
  ["CCCNc1c(CC)c(C)c(C#N)c2nc3ccccc3n12", "> 128 µg/mL"],
  ["CCc1c(C)c(C#N)c2nc3ccccc3n2c1N1CC[C@H](N(C)C)C1", "> 128 µg/mL"],
  ["CCc1c(C)c(C#N)c2nc3ccccc3n2c1NCCN", "> 128 µg/mL"]
]}

###

system: Pichia kudriavzevii; test: Antifungal activity against Candida krusei TIMM 0269 after 24 hrs by microdilution method; type: functional; conditions: TIMM 0269, 24 h
Measured MIC, listed per entry.
Endpoint label: MIC

{"columns": ["Chemical structure", "Tested target", "Endpoint label", "Result"],
 "data": [
  ["CCc1c(C)c(C#N)c2nc3ccccc3n2c1N1CCC(N(C)C)CC1", "Pichia kudriavzevii", "MIC", "> 128 µg/mL"],
  ["Cc1c(-c2ccccc2)c(N2CC[C@H](N(C)C)C2)n2c(nc3ccccc32)c1C#N", "Pichia kudriavzevii", "MIC", "≤ 0.125 µg/mL"],
  ["CCc1c(C)c(C(N)=O)c2nc3ccccc3n2c1NCCN(C)CC", "Pichia kudriavzevii", "MIC", "> 128 µg/mL"],
  ["CCc1c(C)c(C#N)c2nc3ccccc3n2c1N1CCCC1", "Pichia kudriavzevii", "MIC", "> 64 µg/mL"],
  ["CCc1c(C)c(C#N)c2nc3ccccc3n2c1N1CCN(C)CC1", "Pichia kudriavzevii", "MIC", "> 32 µg/mL"],
  ["CCc1c(C)c(C#N)c2nc3ccccc3n2c1NCCCN(C)C", "Pichia kudriavzevii", "MIC", "> 128 µg/mL"],
  ["CCCNc1c(CC)c(C)c(C#N)c2nc3ccccc3n12", "Pichia kudriavzevii", "MIC", "> 128 µg/mL"],
  ["CCc1c(-c2ccccc2)c(C#N)c2nc3ccccc3n2c1N1CC[C@H](N(C)C)C1", "Pichia kudriavzevii", "MIC", "> 128 µg/mL"]
]}

###

system: Candida tropicalis; assay: Antifungal activity against Candida tropicalis TIMM 0313 after 24 hrs by microdilution method; format: functional; settings: TIMM 0313, 24 h
Measured MIC, listed per entry.
Endpoint label: MIC

{"columns": ["Chemical structure", "Result"],
 "data": [
  ["CCc1c(C)c(C#N)c2nc3ccccc3n2c1N1CCCC1", "> 64 µg/mL"],
  ["Cc1c(F)c(N2CC[C@H](N(C)C)C2)n2c(nc3ccccc32)c1C#N", "> 128 µg/mL"],
  ["Cc1c(CCO)c(N2CC[C@H](N(C)C)C2)n2c(nc3ccccc32)c1C#N", "> 128 µg/mL"]
]}
